Tested on: HEK-293T
assay name: Multiplex assay against HEK293T
Assay type: toxicity, cell-based
reported conditions: human, 48 h, 10 µM, compound concentration 10 uM, number of replicates 2
Tick rule met if Population Tubulin-Different-Phenotype (%) is 40% or greater. Tick rule not met if Population Tubulin-Different-Phenotype (%) is less than 40%.

Record excerpt, results attached:
{"columns": ["compound string", "discrete label"],
 "data": [
  ["CN(C)CCCNc1ccnc(Nc2cccc(Cl)c2)n1", "rule met"],
  ["O=C1NC(=O)C(c2ccccc2[N+](=O)[O-])=C1Nc1ccc(O)c(Cl)c1", "rule not met"],
  ["C=CC(=O)Nc1cccc(C)c1Nc1ncc2cc(-c3c(Cl)c(OC)cc(OC)c3Cl)ccc2n1", "rule not met"]
]}

Consider now this further compound.
Decide: Population Tubulin-Different-Phenotype (%) of CCN1C(=O)N(c2c(F)c(OC)cc(OC)c2F)Cc2cnc3[nH]c(CN4CCOCC4)cc3c21 >= 40%?
rule met

---

Tested on: U2OS
assay name: Multiplex assay against U2OS
Format: toxicity, cell-based
reported conditions: human, 48 h, 1 µM, compound concentration 1 uM, number of replicates 2
Measured Population Apoptotic (%) values are reported for all entries that follow.
Give the number; % is assumed, so skip it.

Some entries whose results are on file:
{"columns": ["molecule", "Population Apoptotic (%)"],
 "data": [
  ["CS(=O)(=O)c1ccc(C(=O)Nc2ccc(F)c(COc3ccc(Br)cc3CNCCO)c2)c(Cl)c1.O=CO", 83],
  ["COc1ccc(F)c(F)c1C(=O)c1cnc(NC2CCN(S(C)(=O)=O)CC2)nc1N", 85],
  ["Cl.Clc1ccc2nsnc2c1NC1=NCCN1 [TIZANIDINE HYDROCHLORIDE]", 40]
]}

Query molecule follows.
The recorded Population Apoptotic (%) for entry c1ccc2c(-c3coc4cc(-c5ccc(N6CCNCC6)cc5)cnc34)ccnc2c1 equals 75

---

System: U2OS
assay name: Multiplex assay against U2OS
Type: toxicity, cell-based
reported conditions: human, 48 h, 10 µM, compound concentration 10 uM, number of replicates 2
assay metric: Population Normal (%)
Give the number; % is assumed, so skip it.

{"columns": ["molecule", "Population Normal (%)"],
 "data": [
  ["CS(=O)(=O)c1ccc(C(=O)Nc2cc(F)cc(COc3cc(F)c(Br)cc3CN3CC[C@H](O)C3)c2)c(Cl)c1.O=CO", 98],
  ["COc1cc(N(C)c2ccnc3ccc(C(F)(F)F)cc23)cc(OC)c1OC", 100],
  ["O=C1Nc2ccc(C(=O)c3ccco3)cc2C1=Cc1cc(Cl)c(O)c(Cl)c1 [GW406108X]", 100],
  ["COc1ccccc1-c1cc(Nc2cccc(CS(N)(=O)=O)c2)ncn1", 100],
  ["c1ccc2c(-c3coc4cc(-c5ccc(N6CCNCC6)cc5)cnc34)ccnc2c1", 98]
]}

Query molecule follows.
The recorded Population Normal (%) for entry CC(C)c1c(NC(=O)Nc2ccc(Cl)cc2)c(=O)n(-c2ccccc2)n1C equals 100

---

Tested on: HEK-293T
assay name: Multiplex assay against HEK293T
Assay type: toxicity, cell-based
reported conditions: human, 12 h, 10 µM, compound concentration 10 uM, number of replicates 2
assay metric: Population Hoechst High Intensity Objects (%)
Give the number; % is assumed, so skip it.

Some entries whose results are on file:
{"columns": ["compound", "uom", "measured number"],
 "data": [
  ["O=C(Nc1ccnc(NC(=O)C2CC2)c1)c1c(Cl)cccc1Cl", "%", 3],
  ["COc1ccccc1-c1cc(Nc2cccc(CS(N)(=O)=O)c2)ncn1", "%", 7],
  ["COc1ccncc1C(=O)NC(=O)Nc1ccc(-c2ccccc2)c(C(F)(F)F)c1", "%", 7]
]}

The recorded Population Hoechst High Intensity Objects (%) for entry CC1=C(C)C(=O)C(C(CCCCCC(=O)O)c2ccccc2)=C(C)C1=O (stereo unspecified) equals 7

The recorded Population Hoechst High Intensity Objects (%) for entry Cn1cc(-c2ccc(-c3cncc(Cl)c3N3CCC4(CCNC4=O)CC3)cc2)cn1 equals 7

The recorded Population Hoechst High Intensity Objects (%) for entry CNc1ncc2cc(-c3ccc(-c4cccc(C)n4)cc3Cl)c(=O)n(C[C@H]3OC[C@H](N)CO3)c2n1 equals 30

The recorded Population Hoechst High Intensity Objects (%) for entry Cc1cn(CCN2CCN(c3ccccc3-c3cc(C#N)cc(C(=O)NCCCN4CCCC4)c3)CC2)c2ccccc12 equals 5

The recorded Population Hoechst High Intensity Objects (%) for entry CSc1cc2c(cc1C(F)(F)F)N(C(=O)Nc1cccnc1)CC2 equals 5

The recorded Population Hoechst High Intensity Objects (%) for entry COc1cc(N(C)c2ccnc3ccc(C(F)(F)F)cc23)cc(OC)c1OC equals 5

The recorded Population Hoechst High Intensity Objects (%) for entry CC(C)c1cc(-c2ccc(F)c3ccccc23)nc(N)n1 equals 7

The recorded Population Hoechst High Intensity Objects (%) for entry CNS(=O)(=O)c1ccc(N(C)C)c(Nc2ncnc3cc(OC)c(OC)cc23)c1 equals 7
